Target: T1, human SLC34A2 (human, UniProt O95436 1-690)
T1 construct: whole, on cells; also called human solute carrier 34 A2; NaPi2b
T1 sequence (looked up): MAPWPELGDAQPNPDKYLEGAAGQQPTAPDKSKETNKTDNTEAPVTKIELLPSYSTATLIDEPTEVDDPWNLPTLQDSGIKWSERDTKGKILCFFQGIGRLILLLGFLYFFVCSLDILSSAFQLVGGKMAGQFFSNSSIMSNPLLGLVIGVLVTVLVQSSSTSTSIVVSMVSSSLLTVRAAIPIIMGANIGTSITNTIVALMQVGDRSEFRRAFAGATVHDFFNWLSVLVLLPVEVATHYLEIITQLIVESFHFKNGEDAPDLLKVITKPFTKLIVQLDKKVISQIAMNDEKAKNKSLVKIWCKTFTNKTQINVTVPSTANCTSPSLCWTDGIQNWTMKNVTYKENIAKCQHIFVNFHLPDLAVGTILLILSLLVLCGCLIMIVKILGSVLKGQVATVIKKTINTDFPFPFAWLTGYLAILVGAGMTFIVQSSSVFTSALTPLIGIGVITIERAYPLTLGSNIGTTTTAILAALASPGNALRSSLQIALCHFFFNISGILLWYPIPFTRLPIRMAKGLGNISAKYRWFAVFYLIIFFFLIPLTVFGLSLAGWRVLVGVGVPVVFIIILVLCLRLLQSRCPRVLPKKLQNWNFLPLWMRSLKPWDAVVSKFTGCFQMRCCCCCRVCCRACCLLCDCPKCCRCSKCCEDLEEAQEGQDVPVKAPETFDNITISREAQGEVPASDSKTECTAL
Experiment: FACS, HEK293/human SLC34A2 cells
Overview of reported Top (MFI) across a group of binders:
valueKind: Top (MFI)

binder	unitAbbrev	observed
xi28G3C6B9 hIgG1 (antibody, V domains shown, chimeric, hIgG1) VH: QVQLQQPGAEVVKPGASVKMSCKASGYTFTSYIIHWVKQAPGQGLEWIGAIYPGNGDTSYSQRFKGKAKLTADKSSSTAYMQLNSLTSEDSVVYYCARGNNYGSPAWFGYWGQGTLVTVSA VL: DIVLTQSPVTLSVTPGDRVSLSCRASQSIGNFLYWYQQKSHESPRLLIKYASQSMSGIPSRFSGSGSGTDFTLSISRVETEDFGMYFCQQSNSWPVTFGAGTKLELK	MFI	107000
xi95H11A1D8VH-1 hIgG1 (antibody, V domains shown, chimeric, hIgG1; the suffix VH-1 is not explained) VH: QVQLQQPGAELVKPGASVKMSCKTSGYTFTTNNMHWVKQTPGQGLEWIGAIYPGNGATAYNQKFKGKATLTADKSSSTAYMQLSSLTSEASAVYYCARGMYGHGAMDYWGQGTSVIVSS VL: DIVLTQSPATLSVTPGDSVSLSCRARQNIGNNLYWYQQKSNESPRLLIKYASQSISGIPSRFSGSGSGTDFTLTINSVETEDFGVYFCQQSFSWPLTFGAGTKLELK	MFI	12700
xi91C9F1 hIgG1 (antibody, V domains shown, chimeric, hIgG1) VH: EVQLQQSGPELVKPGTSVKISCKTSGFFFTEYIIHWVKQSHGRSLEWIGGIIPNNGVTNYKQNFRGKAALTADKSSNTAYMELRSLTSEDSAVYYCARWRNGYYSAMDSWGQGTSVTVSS VL: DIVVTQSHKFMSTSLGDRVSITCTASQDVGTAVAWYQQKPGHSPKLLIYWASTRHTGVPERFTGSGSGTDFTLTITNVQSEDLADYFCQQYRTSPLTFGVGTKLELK	MFI	44800
xi78D1B10 hIgG1 (antibody, V domains shown, chimeric, hIgG1) VH: QVQLQQPGADLVKPGASVKLSCKASGFTFTSYIIHWVKQTPGQGLEWIGAIYPGNGDTSYIQKFKGRATLTADKSSTTAYMQLGGLTSEDSAVYYCARGTYGSSAWFVYWGQGTLVTVSA VL: DIVLTQSPATLSVTPGDSVSLSCRASQSISNNLYWYQQKSHESPRLLIKYASQSISGIPSRFRGSGSGTDFTLSINSVETEDFGMYFCQQSNSWPLTFGAGTKLELK	MFI	47700
xi67C9G11 hIgG1 (antibody, V domains shown, chimeric, hIgG1) VH: DVKLVESGGGLVKLGGSLKLSCAASGFTFSSYFMSWIRQTPEKRVDLVAVINSNGGSTYSPDTVKGRFTISRDNAKNTLYLQMTSLKSEDTALYYCARHFYSYDGAWFPYWGQGTLVTVSA VL: DIVMTQSHKFMSTLVGDRVSITCKASQDVSTSVAWYQQKPGQSPKLLIYWASTRHTGVPDRFTGSGSGTDFTLTISSVQAEDLALYYCQQHHSTPITFGVGTKLELK	MFI	107000
